Target: Peroxisome proliferator-activated receptor alpha (Homo sapiens, UniProt Q07869)
Sequence (Q07869 whole entry): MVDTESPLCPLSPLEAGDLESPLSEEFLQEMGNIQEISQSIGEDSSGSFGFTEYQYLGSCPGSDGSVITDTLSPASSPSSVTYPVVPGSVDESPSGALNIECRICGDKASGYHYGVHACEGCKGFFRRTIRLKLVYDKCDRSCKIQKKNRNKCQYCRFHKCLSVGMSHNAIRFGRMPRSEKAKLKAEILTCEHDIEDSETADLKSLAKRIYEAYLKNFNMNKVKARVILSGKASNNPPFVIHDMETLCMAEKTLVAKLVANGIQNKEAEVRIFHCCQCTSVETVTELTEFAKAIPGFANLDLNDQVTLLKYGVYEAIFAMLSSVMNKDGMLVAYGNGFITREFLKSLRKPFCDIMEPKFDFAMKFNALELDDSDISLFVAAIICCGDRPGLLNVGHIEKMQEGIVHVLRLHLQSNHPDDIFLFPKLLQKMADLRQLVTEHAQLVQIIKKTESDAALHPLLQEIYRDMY
Test: Binding affinity towards human […] proliferator activated receptor alpha (hPPARalpha)
Measured log10 IC50 of individual entries
Metric: log10 IC50 (log10 of the value in µM)

>  <Molecule>
CC(C)(Oc1ccc(C(=O)c2ccc(Cl)cc2)cc1)C(=O)O

>  <Metric>
log10 IC50

>  <Numeric result>
1.83

$$$$
>  <Molecule>
Cc1oc(-c2ccc(Br)cc2)nc1CCOc1ccc(OC(C)(C)C(=O)O)cc1

>  <Metric>
log10 IC50

>  <Numeric result>
-0.62

$$$$
>  <Molecule>
Cc1oc(-c2ccccc2)nc1CCOc1ccc(OC(C)(C)C(=O)O)cc1

>  <Metric>
log10 IC50

>  <Numeric result>
0.16

$$$$
>  <Molecule>
Cc1oc(-c2ccccc2)nc1CCOc1ccc(OC(C)C(=O)O)cc1 (configuration not stated)

>  <Metric>
log10 IC50

>  <Numeric result>
0.31

$$$$
>  <Molecule>
Cc1oc(-c2ccccc2)nc1CCOc1ccc(OCC(=O)O)cc1

>  <Metric>
log10 IC50

>  <Numeric result>
1.03

$$$$
>  <Molecule>
Cc1oc(-c2ccc(-c3ccccc3)cc2)nc1CCOc1ccc(OC(C)(C)C(=O)O)cc1

>  <Metric>
log10 IC50

>  <Numeric result>
-0.76

$$$$
>  <Molecule>
Cc1oc(-c2ccccc2)nc1CCOc1ccc(CC2SC(=O)NC2=O)cc1 (configuration not stated)

>  <Metric>
log10 IC50

>  <Numeric result>
0.61

$$$$

----------
Target: Peroxisome proliferator-activated receptor gamma (Homo sapiens, UniProt P37231)
Sequence (P37231 whole entry): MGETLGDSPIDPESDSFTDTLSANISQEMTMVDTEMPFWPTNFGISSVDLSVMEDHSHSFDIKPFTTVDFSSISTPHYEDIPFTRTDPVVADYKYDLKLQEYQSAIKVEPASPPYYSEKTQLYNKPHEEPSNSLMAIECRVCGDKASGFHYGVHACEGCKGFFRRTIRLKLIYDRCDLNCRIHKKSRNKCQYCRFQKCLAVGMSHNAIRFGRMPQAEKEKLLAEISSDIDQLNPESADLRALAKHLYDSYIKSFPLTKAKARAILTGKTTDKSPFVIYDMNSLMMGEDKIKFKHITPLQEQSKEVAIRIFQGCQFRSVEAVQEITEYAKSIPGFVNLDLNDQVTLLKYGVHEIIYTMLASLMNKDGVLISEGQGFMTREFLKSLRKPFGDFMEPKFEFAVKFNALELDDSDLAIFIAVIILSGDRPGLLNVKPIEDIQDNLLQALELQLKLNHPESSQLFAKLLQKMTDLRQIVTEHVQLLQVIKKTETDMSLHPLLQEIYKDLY
Measured log10 IC50 of individual entries
Metric: log10 IC50 (log10 of the value in µM)

>  <Compound>
Cc1oc(-c2ccc(Br)cc2)nc1CCOc1ccc(OC(C)(C)C(=O)O)cc1

>  <log10 IC50>
0.66

$$$$
>  <Compound>
Cc1oc(-c2ccccc2)nc1CCOc1ccc(OCC(=O)O)cc1

>  <log10 IC50>
1.03

$$$$
>  <Compound>
Cc1oc(-c2ccccc2)nc1CCOc1ccc(OC(C)C(=O)O)cc1 (stereo unspecified)

>  <log10 IC50>
0.49

$$$$
>  <Compound>
Cc1oc(-c2ccccc2)nc1CCOc1ccc(OC(C)(C)C(=O)O)cc1

>  <log10 IC50>
0.48

$$$$
>  <Compound>
Cc1oc(-c2ccc(-c3ccccc3)cc2)nc1CCOc1ccc(OC(C)(C)C(=O)O)cc1

>  <log10 IC50>
-0.26

$$$$
>  <Compound>
Cc1oc(-c2ccccc2)nc1CCOc1ccc(CC2SC(=O)NC2=O)cc1 (stereo unspecified)

>  <log10 IC50>
-1.85

$$$$

----------
Biological target: Peroxisome proliferator-activated receptor gamma (Homo sapiens)
Metric: EC50

>  <Compound>
Cc1oc(-c2ccc(Br)cc2)nc1CCOc1ccc(OC(C)(C)C(=O)O)cc1

>  <Metric>
EC50

>  <Result>
1.72 µM

$$$$
>  <Compound>
Cc1oc(-c2ccccc2)nc1CCOc1ccc(OC(C)C(=O)O)cc1 (stereo not given)

>  <Metric>
EC50

>  <Result>
2.75 µM

$$$$
>  <Compound>
Cc1oc(-c2ccccc2)nc1CCOc1ccc(CC2SC(=O)NC2=O)cc1 (stereo not given)

>  <Metric>
EC50

>  <Result>
0.008 µM

$$$$
>  <Compound>
Cc1oc(-c2ccccc2)nc1CCOc1ccc(OC(C)(C)C(=O)O)cc1

>  <Metric>
EC50

>  <Result>
2.06 µM

$$$$
>  <Compound>
Cc1oc(-c2ccc(-c3ccccc3)cc2)nc1CCOc1ccc(OC(C)(C)C(=O)O)cc1

>  <Metric>
EC50

>  <Result>
0.882 µM

$$$$
